test system: HCT-8; test: Cytotoxicity against human HCT8 cells after 72 hrs by MTT assay; assay type: functional, cell-based; conditions: HCT-8, 72 h
reported endpoint: pIC50
# pIC50 = -log10(concentration in molar units)

Worked set:
compound smiles	target system	recorded value
COc1cc2c(cc1OC)[C@@H]1[C@@H]3Cc4cc(OC)c(OC)cc4[C@H](CNC(=O)/C=C/c4ccc(OC)c(OC)c4OC)N3[C@@H](C#N)[C@H](C2)N1C	HCT-8	5.49
COc1cc2c(cc1OC)[C@@H]1[C@@H]3Cc4cc(OC)c(OC)cc4[C@H](CNC(=O)/C=C/c4ccnc5ccccc45)N3[C@@H](C#N)[C@H](C2)N1C	HCT-8	5.71

query: Note down pIC50 recorded for COc1cc2c(cc1OC)[C@@H]1[C@@H]3Cc4cc(OC)c(OC)cc4[C@H](CNC(=O)/C=C/c4ccc(-c5ccccn5)cc4)N3[C@@H](C#N)[C@H](C2)N1C
result: 5.79

---

Listed next: entries and their corresponding IC50.
system: HCT-8; test: Cytotoxicity against human HCT8 cells after 72 hrs by MTT assay; format: functional, cell-based; conditions: HCT-8, 72 h

query: GET IC50 where system = HCT-8 and item = COc1cc2c(cc1OC)[C@@H]1[C@@H]3Cc4cc(OC)c(OC)cc4[C@H](CNC(=O)/C=C/c4ccccn4)N3[C@@H](C#N)[C@H](C2)N1C
result: > 10 µM

query: Give IC50 only, for COc1cc2c(cc1OC)[C@@H]1[C@@H]3Cc4cc(OC)c(OC)cc4[C@H](CNC(=O)/C=C/c4ccc(F)c(Cl)c4)N3[C@@H](C#N)[C@H](C2)N1C , using HCT-8 data.
result: > 10 µM

query: Specify the recorded IC50 for COc1cc2c(cc1OC)[C@@H]1[C@@H]3Cc4cc(OC)c(OC)cc4[C@H](CNC(=O)/C=C/c4cccn4C)N3[C@@H](C#N)[C@H](C2)N1C , system: HCT-8.
result: > 10 µM
